- studySystem: AgLsb1
- experimentNotes: SPOT peptide array binding signal intensity (averaged, normalized) (arbitrary units (background-subtracted, floor 0; scale differs between SH3 domains)); higher = stronger binding of the SH3 domain to the peptide
Quick rule for you: SPOT peptide array binding signal intensity at 30 or higher means y, lower means n.

Example entries and their recorded answers appear below.
Q: Say whether LSKRLPLRFPEHTSS shows SPOT peptide array binding signal intensity of 30 or more.
A: n

Q: Say whether EREKALPPIPFTTTL shows SPOT peptide array binding signal intensity of 30 or more.
A: n

Q: Say whether RAPPPVPKKPSSRIA shows SPOT peptide array binding signal intensity of 30 or more.
A: y

Next:
Q: Say whether TYNRTAFQIPGDQSI shows SPOT peptide array binding signal intensity of 30 or more.
A: y

Q: Say whether RRLRDKYKLPIVDAD shows SPOT peptide array binding signal intensity of 30 or more.
A: n

Q: Say whether SRSKPLPLTPNSKYN shows SPOT peptide array binding signal intensity of 30 or more.
A: n

Q: Say whether LRWRHKFFLPAIAAI shows SPOT peptide array binding signal intensity of 30 or more.
A: n

Q: Say whether PELAPKREAPKPPAN shows SPOT peptide array binding signal intensity of 30 or more.
A: n

Q: Say whether KNPRRQLQIPRQQPS shows SPOT peptide array binding signal intensity of 30 or more.
A: y

Q: Say whether ITHRLRISIPGITGR shows SPOT peptide array binding signal intensity of 30 or more.
A: y

Q: Say whether VAPPPLPNRQLPNLD shows SPOT peptide array binding signal intensity of 30 or more.
A: y

Q: Say whether RKQRSIPLSPIVPES shows SPOT peptide array binding signal intensity of 30 or more.
A: n

Q: Say whether YHSRRHPLALGFKYV shows SPOT peptide array binding signal intensity of 30 or more.
A: n

Q: Say whether DTIDNVKSKIQDKEG shows SPOT peptide array binding signal intensity of 30 or more.
A: n

Recorded values, source the supplement of paper PMC4466140.
